tested on: TK-10 renal; assay: NCI-60 one-dose screen, 48 h; details: 10 µM unless noted
This is part of a sample that, as a whole, favours compounds with a hit. Of some 83,000 tested, about 20% had one in any assay. Calls of active or inactive are those of the source. Rule for the calls: active = growth percent below 10; inactive = the rest.
Possible outcomes: T = active, F = inactive

Molecule	Discrete label
CCOC(=O)c1csc(NC(=O)COc2ccc(/C=C3\Oc4ccccc4C3=O)cc2)n1	F
Cc1ccc2c(n1)C(=O)C(Br)=C(C1CCCC1)C2=O	F
CCc1ccc(CCCC(=O)O)cc1	F
COc1ccc(OC)c(/C=N/Nc2ncnc3c2c(C)nn3C)c1	F
O=S(=O)(NCCNc1nccc(-c2c(-c3ccc(F)c(O)c3)nc3occn23)n1)c1ccc(Cl)cc1	F
COc1cc(OC)c(NC(=O)c2cc3ccccc3cc2O)cc1Cl	F
Clc1cc(Cl)c(Cl)c(-c2nnc(SCc3ccncc3Br)o2)c1	F
CCOc1ccccc1Cn1ccnc1CCc1c(Cl)c(O)cc(O)c1C(=O)OC	F
CCOC(=O)c1c2c(n3cccc(F)c13)C(=O)c1ncccc1C2=O	F
O=S(=O)(Nc1ccc(Cl)c(C(F)(F)F)c1)c1ccc(-c2cnc(C3CC3)o2)cc1	T
Cn1c(=O)c2nc(/C=C/c3ccccc3)c(=O)[nH]c2n(C)c1=S	F
CCOC(=O)c1c(NC(=O)c2ccc(Cl)cc2)sc2c(CN(C)C)c(O)ccc12	F
COC(=O)CC[C@@H]1O[C@@H](c2cccc(C(F)(F)F)c2)[C@@H](O)[C@H]1O	F
COC12C=C/C(=C(/C(=O)OCc3ccncc3)C(=O)CCCCCCCCC3(OC)C=C/C(=C(/C(=O)OCc4ccncc4)C(=O)CCCCCCCC1)O3)O2	T
CCN(CC)CCn1c2ccc(O)cc2c2sc3cc(O)ccc3c(=O)c21	F
NC(Cc1ccc(O)c([N+](=O)[O-])c1)C(=O)O (stereo unspecified)	F
Cc1cc(S(=O)(=O)/N=C(\N)n2nc(C)c(C)c2C)c(SCc2ccccc2)cc1Cl	F
CC(C)c1ccc(C(=O)Nc2sc3c(c2C(N)=O)CCC(=O)C3)cc1	T
Oc1c(Br)cc(Br)c2ccc(Cn3cc(-c4ccc(C(F)(F)F)cc4)nn3)nc12	F
CN(C)CCNC(=O)c1cc2c3cc(Cl)ccc3[nH]c2c2ncccc12	F
O=C(O)c1cn(C2CC2)c2cc(N3CCN(Cc4ccc5ccccc5c4O)CC3)c(F)cc2c1=O	F

###

system: TK-10 renal; assay: NCI-60 one-dose screen, 48 h (100 = growth as untreated, 0 = no growth, -100 = all killed); conditions: 10 µM unless noted
Compounds without any hit were thinned out: in the full panel of roughly 83,000, 20% have a hit.
Quantity measured: growth (%)

Compound	Recorded value
O=C(CN1C(=O)S/C(=C\C(Cl)=C\c2ccccc2)C1=O)NCCc1ccc(O)cc1	24.1
CC1CCN(S(=O)(=O)c2ccc(S(=O)(=O)N3CCCC(c4nc5c(nnn5Cc5cccc(Cl)c5)c(=O)[nH]4)C3)cc2)CC1 (centres undefined)	71.5
COC(=O)/C=C1/SC(=Nc2cccc(OC)c2)N(CCc2c[nH]c3ccc(O)cc23)C1=O	117
C=C1C(=O)O[C@H]2[C@H]1CC/C(COC(=O)C(=O)c1cn(C)c3ccc(Cl)cc13)=C\CC[C@@]1(C)O[C@@H]21	-91.1
CC/C(=C(/c1ccc(Cl)cc1)c1ccc(OCCN2CCCCC2)cc1)c1ccc(OC)cc1	80.7
Nc1nc2ccccc2c2c(=O)c3cccc(Cl)c3sc12	83.6
c1ccc2cc(C[n+]3ccn(CCCCCCCCCCn4cc[n+](Cc5ccc6ccccc6c5)c4)c3)ccc2c1	15.1
N#Cc1c(-c2ccccc2)cc(-c2ccc(Nc3nc(Nc4ccc(Cl)cc4)nc(Nc4ccc(Cl)cc4)n3)cc2)nc1N	-60.1
COc1ccc(-c2ccc(-c3ccc(C(=N)N)cc3)s2)cc1Cl	111
O=C(N/N=C/c1c(Cl)cccc1Cl)c1cccnc1Nc1cccc(C(F)(F)F)c1	35.6
CC(C)=CCC[C@](C)(O)[C@H]1CC[C@]2(C)[C@@H]1CC[C@@H]1[C@@]3(C)C/C(=C/c4ccco4)C(=O)C(C)(C)[C@@H]3CC[C@]12C	103
CN(C)S(=O)(=O)c1cccc(C(=O)Nc2nc(-c3ccc(F)c(F)c3)cs2)c1	81.2
O=C(Nc1cccc(-c2ccc(N3CCOCC3)nn2)c1)Nc1cccc(C(F)(F)F)c1	70.6
Cc1csc(Nc2nc(-c3ccccn3)nc(C(Cl)(Cl)Cl)n2)n1	94.8
COc1cc2ncnc(Nc3ccc(S(=O)(=O)Nc4cc(C)on4)cc3)c2cc1OCCCN1CCN(c2ccc(F)cc2)CC1	115
CC(C)=CCCC(C)c1ccc(C)c2c1OCN(CCCCCO)C2 (centres undefined)	73.7
COc1ccc2c(c1)N(CCO)C1=C(C(=O)OC1)C2c1cccc(F)c1 (centres undefined)	61.2
CC(=O)Oc1ccc(C)cc1C	102
O=C(/C=C/c1ccco1)Nc1ncc(Cc2cccc(C(F)(F)F)c2)s1	33.6

###

Test system: U251 CNS
Assay: NCI-60 one-dose screen, 48 h (100 = growth as untreated, 0 = no growth, -100 = all killed)
Settings: 10 µM unless noted
Method: Growth inhibition of the U251 human tumor cell line is measured as a screen for anti-cancer activity. Cells are grown in 96 well plates and exposed to the test compound for 48 hours. Compounds are tested at a single concentration, which is 10^-5 M for most compounds. The reported endpoint is percent growth (GI% or GIPRCNT), where numbers from 0 - 100% represent growth inhibition, and numbers from -100% - 0 represent cell death. For example, a value of 40 represents 60% growth inhibition. […]
This is part of a sample that, as a whole, favours compounds with a hit. Of some 83,000 tested, about 20% had one in any assay.

Smiles repr	Target entity	Unit tag	growth
Cn1ccnc1C(=O)/C=C/c1ccc(C(=O)Nc2ccc(Cl)cc2)cc1	U251 CNS	%	-50.1
C#CCOc1ccc2ncnc(Nc3ccc(NC(=O)C=C)cc3)c2c1	U251 CNS	%	-22.9
Nc1ncc(-c2ccc3ncnc(Nc4cccc(Cl)c4)c3c2)cn1	U251 CNS	%	43.6
COc1ccc(C(=O)c2cc3c(N)c(C(=O)Nc4ccc(C)cc4)sc3nc2C)cc1	U251 CNS	%	19.2
O=C(NCCNc1nccc(Nc2ccc(S(=O)(=O)Nc3ccccn3)cc2)n1)c1cccc([N+](=O)[O-])c1	U251 CNS	%	97.6
COc1cc(-c2nc3sccn3c2-c2ccnc(NCCNS(=O)(=O)c3ccccc3)n2)ccc1F	U251 CNS	%	61
O=S(=O)(c1ccccc1)n1cc2c(c1)-c1nc(Nc3ncccn3)sc1CC2	U251 CNS	%	46.2
COc1ccc(-c2ccc(-c3ccc(C(=N)N)cc3)s2)cc1Cl	U251 CNS	%	-62.4
Fc1ccc(CNc2c3ccccc3nc3ccccc23)c(F)c1	U251 CNS	%	44.1
CCCOC(=O)Nc1nc2ccc(SCC(C)C)cc2s1	U251 CNS	%	49.2

###

system: SK-OV-3 ovarian; assay: NCI-60 one-dose screen, 48 h; conditions: 10 µM unless noted
The panel holds about 83,000 compounds, 20% with a hit somewhere; the sample as a whole holds those more often. Activity calls are given as the source filed them. The calls were made as follows: active = growth percent below 10; inactive = the rest.
Possible outcomes: True for active, False for inactive

Smiles repr	Discrete label
CCSc1oc(-c2ccccc2)nc1[P+](c1ccccc1)(c1ccccc1)c1ccccc1	True
COc1ccc(OC)c(/C=N/Nc2ncnc3c2c(C)nn3C)c1	False
Cc1c2cnccc2c(C)c2c1c1cc(C#N)ccc1n2C	True
C[C@@H](CO)[C@@H]1CCC=C2CC[C@]3(C)[C@H](CC[C@@H]4[C@@]5(C)CCCNC(C)(C)[C@@H]5CC[C@]43C)[C@H]21	False
CCCc1c(OC(=O)c2ccccc2)nc2[nH]c(=O)sc2c1C	False
CC(=O)n1nc(C(=O)OC(C)(C)c2ccccc2)c2ccccc21	False
Cn1cc(-c2nonc2-c2cn(C)c3ccccc23)c2ccccc21	False
COc1c(C(=O)Nc2ccc(C)c(Br)c2)ccc2ccccc12	False
O=C(Nn1c2c(sc1=NC1CC1)C(=O)c1ccccc1C2=O)c1cc2ccc1CCc1ccc(cc1)CC2	False
O=C(O)c1cn(C2CC2)c2cc(N3CCN(C(=O)N(c4ccccc4)c4nc(-c5ccccc5)cs4)CC3)c(F)cc2c1=O	True
COC12C=C/C(=C(/C(=O)OCc3ccncn3)C(=O)CCCCCCCCC3(OC)C=C/C(=C(/C(=O)OCc4ccncn4)C(=O)CCCCCCCC1)O3)O2	False
COc1cc2c(cc1OCCCN1CCN(CCCOc3cc4c(cc3OC)C(=O)N3CC(F)(F)C[C@H]3C=N4)CC1)N=C[C@@H]1CC(F)(F)CN1C2=O	False
C=C1C(=O)O[C@H]2[C@H]1CC/C(COC(=O)C(=O)c1cn(C)c3ccc(Cl)cc13)=C\CC[C@@]1(C)O[C@@H]21	True
Cn1c(I)c(C#CCO[Si](C)(C)C(C)(C)C)c(=O)[nH]c1=O	False
Nc1ncnc2c1c(-c1cccc(Cl)c1)nn2CC(=O)N1CCOCC1	False
O=c1[nH]c(-c2ccccc2)nc2sc3cc(O)ccc3c12	False
O=C(Nc1nc2ccc(C(=O)N3CCN(/C=C/c4ccccc4)CC3)cc2s1)c1ccc(NCCc2ccccc2)c([N+](=O)[O-])c1	False
CC(C)c1ccc(C(=O)Nc2nc3ccc(O)c(CN(C)C)c3s2)cc1	False
